Target: GLP-1 receptor (GLP-1R) (human, UniProt P43220 24-463)
Assay: cell-based or functional assay
Starred links: 1 amine or outer side, 2 acyl side, 3 side chain; linkers in the order of their positions; H or OH if unused. Non-standard residues stand in square brackets, D forms with d. Groups on a side chain read outwards from the residue. Primed or numbered codes have the meaning given here. No end group written: not given here. *: point of attachment. γGlu = O=C(O)[C@H](CCC(=O)[*:2])N[*:1]; Stearoyl = CCCCCCCCCCCCCCCCCC(=O)*; Palmitoyl = CCCCCCCCCCCCCCCC(=O)*; αMeF = C[C@](N)(Cc1ccccc1)C(=O)O; αMeK = C[C@](N)(CCCCN)C(=O)O; Lauroyl = CCCCCCCCCCCC(=O)*; αMeS = C[C@](N)(CO)C(=O)O; PEG2′ = not defined here; Aib = CC(C)(N)C(=O)O
PARAMETER MEASURED: cAMP Mean pM GLP-1R (pM)

1) H[Aib]EGS[αMeF]TSDV[αMeS]S[αMeF]LEGEAA[αMeK]E[αMeF]IA[αMeF]K([PEG2′-PEG2′-γGlu-Stearoyl])V[αMeK]GG-NH2 [SEQ ID NO 103]	5
2) HXEGSFTSDVSKFLEGEAAKEFIAFVVKGG (Aib 2; α-MeF 6, 13, 22, 25; α-MeS 11; α-MeK 20, 28; K(ε-γE-Palmitoyl) 12; C-terminal amide) [SEQ ID NO 88]	5
3) HK([γGlu-Palmitoyl])EGS[αMeF]TSDV[αMeS]S[αMeF]LEGEAA[αMeK]E[αMeF]IA[αMeF]VV[αMeK]GG-NH2 [SEQ ID NO 98]	27500
4) H[Aib]EGS[αMeF]TSDV[αMeS]SK([PEG2′-PEG2′-γGlu-Stearoyl])LEGEAA[αMeK]E[αMeF]IA[αMeF]VV[αMeK]GG-NH2 [SEQ ID NO 116]	9
5) H[Aib]EGS[αMeF]TK([PEG2′-PEG2′-γGlu-Stearoyl])DV[αMeS]S[αMeF]LEGEAA[αMeK]E[αMeF]IA[αMeF]VV[αMeK]GG-NH2 [SEQ ID NO 121]	25100
6) H[Aib]EGS[αMeF]TSDV[αMeS]S[αMeF]LEGEAK([PEG2′-PEG2′-γGlu-Stearoyl])[αMeK]E[αMeF]IA[αMeF]VV[αMeK]GG-NH2 [SEQ ID NO 110]	62
7) H[Aib]EGS[αMeF]TSDV[αMeS]S[αMeF]LEGEAAK([PEG2′-PEG2′-Lauroyl])E[αMeF]IA[αMeF]VV[αMeK]GG-NH2 [SEQ ID NO 135]	5
8) H[Aib]EGS[αMeF]TSDV[αMeS]S[αMeF]LEGEAAK([PEG2′-Lauroyl])E[αMeF]IA[αMeF]VV[αMeK]GG-NH2 [SEQ ID NO 134]	6
9) H[Aib]EGS[αMeF]TSDV[αMeS]S[αMeF]LEGEAAK([PEG2′-PEG2′-PEG2′-Lauroyl])E[αMeF]IA[αMeF]VV[αMeK]GG-NH2 [SEQ ID NO 136]	3
